Each entry below carries its reported collision cross section (N2).
condition.set: [M+Na]+; instrument: DT; single field, calibrated with ESI Low Concentration Tuning Mix (Agilent)
// units = Å²; emit number, no label

The examples below pair each entry with its known result.
- O=C1O[C@H]([C@@H](O)CO)C(O)=C1O [ASCORBATE]: 141.6
- NC[C@H](O)CC[C@H](N)C(=O)O [5-HYDROXYLYSINE]: 137.5
- O=C(O)c1cc(=O)c2ccccc2[nH]1 [KYNURENATE]: 151.1

Return collision cross section (N2) (reported value) for this compound: Cc1ncc(CO)c(C=O)c1O [PYRIDOXAL]
142.8

Return collision cross section (N2) (reported value) for this compound: CN1CC(=O)N=C1N [CREATININE]
132.8

Return collision cross section (N2) (reported value) for this compound: O=C(O)C(O)Cc1ccc(O)cc1 (stereo not drawn) [HYDROXYPHENYLLACTATE]
144.2

Return collision cross section (N2) (reported value) for this compound: C[C@]12CCC(=O)C=C1CC[C@@H]1[C@@H]2CC[C@@]2(C)[C@H]1CC[C@]2(O)C(=O)CO [CORTEXOLONE]
211

Return collision cross section (N2) (reported value) for this compound: CCCCCCCCCCCCCCCC(=O)O[C@H]1CC[C@@]2(C)C(=CC[C@H]3[C@@H]4CC[C@H]([C@H](C)CCCC(C)C)[C@@]4(C)CC[C@@H]32)C1 [CHOLESTERYL PALMITATE]
286.3

* * *

Each entry below carries its reported collision cross section (N2).
condition.set: [M+H]+; instrument: DT; stepped-field
// units = Å²; emit number, no label

The examples below pair each entry with its known result.
• C[C@]12CCC(=O)C=C1CC[C@@H]1[C@@H]2[C@@H](O)C[C@@]2(C)[C@H]1CC[C@]2(O)C(=O)CO [Hydrocortisone] = 189.27
• CCC(C)[C@H](NC(=O)[C@H](CC(C)C)NC(=O)[C@H](CC(=O)O)NC(=O)[C@@H](N)CCC(=O)O)C(=O)N[C@@H](C)C(=O)N[C@@H](Cc1ccc(O)cc1)C(=O)N[C@@H](CC(C)C)C(=O)N[C@@H](CCCCN)C(=O)O (some centres not stated) = 307.47
• CCC(C)[C@H](N)C(=O)N[C@@H](Cc1ccccc1)C(=O)N[C@H](C(=O)N[C@@H](CCC(N)=O)C(=O)N[C@@H](CCCCN)C(=O)O)C(C)C (some centres not stated) = 248.88
• CN1CC(=O)N=C1N = 123.87
• NCCCC[C@H](N)C(=O)O = 131.62
• CCC(C)[C@H](NC(=O)CNC(=O)[C@H](C)NC(=O)[C@H](Cc1ccccc1)NC(=O)[C@@H](NC(=O)[C@@H](N)CCSC)C(C)CC)C(=O)N[C@@H](CCCCN)C(=O)O (some centres not stated) = 275.34

Return collision cross section (N2) (reported value) for this compound: NC(CCS)C(=O)O (racemic)
130.78

* * *

condition.set: [M-H]-; instrument: TW; calibrated with phosphatidylcholines (ESI+) and phosphatidylethanolamines (ESI-)
Each entry below carries its reported collision cross section (N2).
// units = Å²; emit number, no label

- CCCCCCCCCCCCCC/C=C\OC[C@@H](O)COP(=O)([O-])OCC[NH3+]: 204.7
- CCCCC/C=C\C/C=C\CCCCCCCCCC(=O)O[C@H](COC(=O)CCCCCCCCCCCCCCC)COP(=O)(O)OCCN: 267.4
- CCCCCCCCCC/C=C\CCCCCCCCCC(=O)O[C@H](COC(=O)CCCCCCCCCCCCC)COP(=O)(O)OC[C@H](N)C(=O)O: 278.8

Return collision cross section (N2) (reported value) for this compound: CCCCC/C=C\C/C=C\CCCCCCCCCCCC(=O)O[C@H](COC(=O)CCCCCCC/C=C\C/C=C\CCCCC)COP(=O)(O)O[C@H]1C(O)C(O)C(O)[C@@H](O)C1O (stereo partly specified)
297.1

Return collision cross section (N2) (reported value) for this compound: CCCCCCCC/C=C\CCCCCCCCCC(=O)O[C@H](COC(=O)CCCCCCCCCCCCC)COP(=O)(O)O
254.7

Return collision cross section (N2) (reported value) for this compound: CCCCC/C=C\C/C=C\CCCCCCCCCCCC(=O)O[C@H](CO/C=C\CCCCCCCCCCCCCC)COP(=O)(O)OCCN
272.7
